Source listed as patent US9174991B2.

Listed compounds paired with reported HPLC-purity
testParameters: 39% to 50% relative humidity, dark, air, 5 d; measured 42.8% (Form A 38.6%), 24° C.
Number in %, nothing else.

For orientation, consider the following solved cases.
>>> df
                                   compound  testreadout  resultnumber
0  Nc1nc(O)c2c(CCc3ccc(C(=O)N[C@@H](CCC(=O)O)C(=O)O)cc3)c[nH]c2n1 [Heptahydrate]  HPLC-purity         99.78
1  Nc1nc(O)c2c(CCc3ccc(C(=O)N[C@@H](CCC(=O)O)C(=O)O)cc3)c[nH]c2n1 [Form A]  HPLC-purity         99.64
2  Nc1nc(O)c2c(CCc3ccc(C(=O)N[C@@H](CCC(=O)O)C(=O)O)cc3)c[nH]c2n1 [2.5 hydrate]  HPLC-purity         99.62

As a next step, examine the compound that follows.
query: Could you share which HPLC-purity value was measured for Nc1nc(O)c2c(CCc3ccc(C(=O)N[C@@H](CCC(=O)O)C(=O)O)cc3)c[nH]c2n1 [Form IV] ?
result: 99.78
